system: Staphylococcus aureus; test: Antibacterial activity against methicillin-resistant Staphylococcus aureus NRS384 assessed as inhibition of visible bacterial growth incubated for 18 to 20 hrs by CLSI method; type: functional; details: time 18-20 hrs
MIC values, listed per item
Numbers only; they are read as µg/mL.

Reference set (4 entries):
O=C(Nc1nnc(-c2cccs2)o1)c1ccc(S(=O)(=O)C(F)(F)F)cc1 4
CC(=O)NC[C@H]1CN(c2ccc(N3CCOCC3)c(F)c2)C(=O)O1 1
O=C(Nc1nnc(-c2cccs2)o1)c1ccc(SC(F)(F)F)cc1 0.5
O=C(Nc1nnc(-c2cccs2)o1)c1ccc(OC(F)(F)F)cc1 0.5

Using the record for O=C(Nc1nnc(-c2cccs2)o1)c1ccc(S(F)(F)(F)(F)F)cc1 , report its MIC.
0.5

###

assay: Hemolytic activity in human RBC at 64 ug/ml incubated for 60 mins relative to control; format: ADME, cell-based, Erythrocyte; conditions: red blood cells (erythrocytes), at 64 µg/mL, read-out: Activity
Observable: hemolysis at 1 h, 64 ug/ml (%)
Field: numeric (%). Do not append units.

Value lookup for hemolysis at 1 h, 64 ug/ml; key = O=C(Nc1nnc(-c2cccs2)o1)c1ccc(S(=O)(=O)C(F)(F)F)cc1
35

###

experiment: Hemolytic activity in human RBC at 32 ug/ml incubated for 60 mins relative to control; format: ADME, cell-based, Erythrocyte; conditions: red blood cells (erythrocytes), at 32 µg/mL, read-out: Activity
Observable: hemolysis at 1 h, 32 ug/ml (%)
Give a bare numeral; the unit % is implied.

Reported hemolysis at 1 h, 32 ug/ml for O=C(Nc1nnc(-c2cccs2)o1)c1ccc(S(=O)(=O)C(F)(F)F)cc1 : what is it?
23

###

system: Listeria monocytogenes; assay: Antibacterial activity against Listeria monocytogenes ATCC 19111 assessed as inhibition of visible bacterial growth incubated for 18 to 20 hrs by CLSI method; format: functional; conditions: time 18-20 hrs
Property: MIC; scope: individual compounds
Answer in µg/mL, number only, no unit symbol.

Example compounds with recorded MIC:
CN[C@H](CC(C)C)C(=O)N[C@H]1C(=O)N[C@@H](CC(N)=O)C(=O)N[C@H]2C(=O)N[C@H]3C(=O)N[C@H](C(=O)N[C@H](C(=O)O)c4cc(O)cc(O)c4-c4cc3ccc4O)[C@H](O)c3ccc(c(Cl)c3)Oc3cc2cc(c3O[C@@H]2O[C@H](CO)[C@@H](O)[C@H](O)[C@H]2O[C@H]2C[C@](C)(N)[C@H](O)[C@H](C)O2)Oc2ccc(cc2Cl)[C@H]1O 0.5
O=C(Nc1nnc(-c2cccs2)o1)c1ccc(S(F)(F)(F)(F)F)cc1 0.125
O=C(Nc1nnc(-c2cccs2)o1)c1ccc(S(=O)(=O)C(F)(F)F)cc1 2
O=C(Nc1nnc(-c2cccs2)o1)c1ccc(SC(F)(F)F)cc1 0.5
CC(=O)NC[C@H]1CN(c2ccc(N3CCOCC3)c(F)c2)C(=O)O1 0.5

Proceeding to the next compound to report its MIC.
So what's the measured MIC for this one? O=C(Nc1nnc(-c2cccs2)o1)c1ccc(OC(F)(F)F)cc1
2

###

test system: Streptococcus pneumoniae; assay: Antibacterial activity against […] Streptococcus pneumoniae ATCC 700677 assessed as inhibition of visible bacterial growth incubated for 18 to 20 hrs by CLSI method; type: functional; settings: time 18-20 hrs
Observable: MIC (µg/mL)
Entry rule: numbers only, all in µg/mL.

Molecule	Target or system	Recorded value
O=C(Nc1nnc(-c2cccs2)o1)c1ccc(SC(F)(F)F)cc1	Streptococcus pneumoniae	0.25
O=C(Nc1nnc(-c2cccs2)o1)c1ccc(S(=O)(=O)C(F)(F)F)cc1	Streptococcus pneumoniae	1
CN[C@H](CC(C)C)C(=O)N[C@H]1C(=O)N[C@@H](CC(N)=O)C(=O)N[C@H]2C(=O)N[C@H]3C(=O)N[C@H](C(=O)N[C@H](C(=O)O)c4cc(O)cc(O)c4-c4cc3ccc4O)[C@H](O)c3ccc(c(Cl)c3)Oc3cc2cc(c3O[C@@H]2O[C@H](CO)[C@@H](O)[C@H](O)[C@H]2O[C@H]2C[C@](C)(N)[C@H](O)[C@H](C)O2)Oc2ccc(cc2Cl)[C@H]1O [VANCOMYCIN]	Streptococcus pneumoniae	1
O=C(Nc1nnc(-c2cccs2)o1)c1ccc(OC(F)(F)F)cc1	Streptococcus pneumoniae	1

Would you kindly look at the next entry?
Endpoint output: MIC of O=C(Nc1nnc(-c2cccs2)o1)c1ccc(S(F)(F)(F)(F)F)cc1 . Value?
0.125
